Quick reference: inhibition of the listed items.
- tgt: Nitric oxide synthase 3 (Homo sapiens) (UniProt P29474)
- Sequence (P29474 whole entry): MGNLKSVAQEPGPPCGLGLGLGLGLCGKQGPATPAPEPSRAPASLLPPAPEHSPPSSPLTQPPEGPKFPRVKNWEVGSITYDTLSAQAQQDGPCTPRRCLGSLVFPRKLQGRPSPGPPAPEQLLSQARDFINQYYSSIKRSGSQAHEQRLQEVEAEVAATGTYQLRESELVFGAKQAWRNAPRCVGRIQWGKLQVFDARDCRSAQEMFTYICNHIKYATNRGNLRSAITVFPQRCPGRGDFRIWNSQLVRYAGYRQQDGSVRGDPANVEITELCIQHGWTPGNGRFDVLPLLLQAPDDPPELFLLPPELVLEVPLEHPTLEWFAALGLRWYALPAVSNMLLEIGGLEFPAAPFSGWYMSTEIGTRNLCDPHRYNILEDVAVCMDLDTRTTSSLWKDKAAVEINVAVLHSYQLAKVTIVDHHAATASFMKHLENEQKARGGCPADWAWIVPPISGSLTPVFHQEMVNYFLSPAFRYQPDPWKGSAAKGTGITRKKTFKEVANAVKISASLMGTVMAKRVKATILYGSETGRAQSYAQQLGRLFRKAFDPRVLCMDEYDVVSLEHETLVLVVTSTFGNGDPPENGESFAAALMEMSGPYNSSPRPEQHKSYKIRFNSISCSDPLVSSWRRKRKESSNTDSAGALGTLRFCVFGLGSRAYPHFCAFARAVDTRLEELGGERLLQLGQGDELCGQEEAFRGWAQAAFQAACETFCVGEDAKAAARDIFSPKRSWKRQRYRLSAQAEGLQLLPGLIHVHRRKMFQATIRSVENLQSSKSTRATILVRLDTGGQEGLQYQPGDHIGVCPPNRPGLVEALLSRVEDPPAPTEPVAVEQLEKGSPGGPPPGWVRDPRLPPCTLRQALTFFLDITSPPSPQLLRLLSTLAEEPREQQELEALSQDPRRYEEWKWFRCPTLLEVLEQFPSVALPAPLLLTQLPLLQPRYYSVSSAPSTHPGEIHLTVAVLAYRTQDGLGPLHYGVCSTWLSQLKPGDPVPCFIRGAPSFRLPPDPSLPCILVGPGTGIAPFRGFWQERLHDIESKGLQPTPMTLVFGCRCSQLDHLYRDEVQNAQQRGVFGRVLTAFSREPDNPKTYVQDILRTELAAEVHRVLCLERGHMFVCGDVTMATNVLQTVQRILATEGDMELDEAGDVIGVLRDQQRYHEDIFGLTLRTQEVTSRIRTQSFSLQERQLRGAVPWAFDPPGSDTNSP
- procedureDetails: Ability (at 100 catalyzed by endothelial NOS (e NOS) from HUVEC cells
- Assay type: functional, cell-based
- measurementConditions: concentration not given here

NC1=NC(c2cccc(F)c2)Cc2ccccc21 (stereo unspecified) | < 25%

Fill in the blank: the reported inhibition of NC1=NC(c2ccc(F)cc2)Cc2cccc(F)c21 (stereo unspecified) is ____.
< 25%

Fill in the blank: the reported inhibition of CC1(C)Cc2ccccc2C(N)=N1 is ____.
< 25%

Fill in the blank: the reported inhibition of NC1=NC(c2ccc(F)cc2)Cc2cccc(Cl)c21 (stereo unspecified) is ____.
39%

Fill in the blank: the reported inhibition of NC1=NC(c2ccccc2)Cc2ccccc21 (stereo unspecified) is ____.
< 25%

Fill in the blank: the reported inhibition of NC1=NC(c2ccccc2)Cc2cccc(Cl)c21 (stereo unspecified) is ____.
< 25%
